Please go through the items and note down their fold activation, T-cell proliferation, plate-bound Ab 10.6 nM, donor 4.
# test_system: T1, human GITR (amino acids M1-V241, NCBI Accession #NP_004186.1) expressed on cells (human, UniProt Q9Y5U5 26-241)
# T1 sequence: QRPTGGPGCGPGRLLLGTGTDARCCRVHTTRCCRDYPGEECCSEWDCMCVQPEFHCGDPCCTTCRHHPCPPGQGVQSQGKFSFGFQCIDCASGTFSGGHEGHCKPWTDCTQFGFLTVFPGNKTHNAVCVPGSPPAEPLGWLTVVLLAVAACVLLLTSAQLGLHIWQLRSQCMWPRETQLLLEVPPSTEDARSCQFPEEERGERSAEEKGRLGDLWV
# experiment_description: cell-based or functional assay

Request: Please report the recorded fold activation, T-cell proliferation, plate-bound Ab 10.6 nM, donor 4 for H4H14470P (antibody, human IgG4, V domains shown, human IgG4 (H4H)) VH: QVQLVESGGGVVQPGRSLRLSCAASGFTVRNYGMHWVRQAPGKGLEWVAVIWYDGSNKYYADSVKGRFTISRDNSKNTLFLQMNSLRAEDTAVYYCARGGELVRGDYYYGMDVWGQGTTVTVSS VL: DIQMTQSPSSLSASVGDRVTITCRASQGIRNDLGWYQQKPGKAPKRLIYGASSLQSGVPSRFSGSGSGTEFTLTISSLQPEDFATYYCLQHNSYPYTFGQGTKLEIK .
Result: 4 fold

Request: Would you mind doing H4H14528P (antibody, human IgG4, V domains shown, human IgG4 (H4H)) VH: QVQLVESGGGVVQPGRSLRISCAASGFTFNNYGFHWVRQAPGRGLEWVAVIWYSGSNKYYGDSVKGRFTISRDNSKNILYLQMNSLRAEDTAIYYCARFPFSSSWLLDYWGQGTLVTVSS VL: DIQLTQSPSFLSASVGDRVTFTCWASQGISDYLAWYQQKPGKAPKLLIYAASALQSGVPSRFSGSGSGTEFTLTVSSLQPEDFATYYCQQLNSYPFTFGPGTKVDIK as well?
Result: 4 fold

Request: Also H4H14508P (antibody, human IgG4, V domains shown, human IgG4 (H4H)) VH: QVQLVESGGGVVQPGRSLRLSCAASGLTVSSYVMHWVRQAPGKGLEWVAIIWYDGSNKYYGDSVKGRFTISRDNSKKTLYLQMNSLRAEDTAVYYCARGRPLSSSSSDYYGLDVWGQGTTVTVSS VL: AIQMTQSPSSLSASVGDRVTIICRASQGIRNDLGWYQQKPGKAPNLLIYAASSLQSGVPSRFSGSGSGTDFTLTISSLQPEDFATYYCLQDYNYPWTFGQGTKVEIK ?
Result: 7 fold
